Test: yeast display, Sf9 membrane polyspecificity reagent, FACS + sequencing; frameworks hold sequencing errors
Measured metric: polyreactivity (PSR sort gate)

[
  {
    "Primary sequence": "QVQLVESGGGIVQAGGSLRLSCAASGSIFVHNDMGWYRQAPGKERELVARINTGGGTNYADSVKGRFTISRDNAKNTVYLEMNSLKPEDTAVYYCATDGDRYDHYFTDPEFDYWGQGTQVTVSS",
    "polyreactivity (PSR sort gate)": "low polyreactivity"
  },
  {
    "Primary sequence": "QVQLQESGGGLVQAGGSLRLSCAASGSIFEELDMGWYRQAPGKEREFVAANGTGSTTYYADSVKGRFTISRDNAKNTVYLQMNSLKPEVTAVYYCAVTYSVYLPFRYWGQGTQVTVSS",
    "polyreactivity (PSR sort gate)": "high polyreactivity"
  },
  {
    "Primary sequence": "QVQLVESGGGLVQAGGSLRLSCAASGITFEPYAMGWYRQAPGKEREFVADITWSGGSTYYADSVKGRFTISRDNAMNTGYLQMNSLKPEDTAVYYCAADGWTSYWSDYWGQGTQVTVSS",
    "polyreactivity (PSR sort gate)": "low polyreactivity"
  },
  {
    "Primary sequence": "QVQLVESGGGLVQAGGSLRLSCAASGSTLYYNAMGWYRQAPGKERELVAAITSGGSTSYADSVKGRFTISRDNAKNTVYLQMNRLKPDDTAVYYCAAVFYRRFDYWGQGTQVTVSS",
    "polyreactivity (PSR sort gate)": "low polyreactivity"
  }
]

Moving on to the next sequence.
State, in one line, measured polyreactivity (PSR sort gate) of QVQLVESGGGLVQAGGSLRLSCAASGRIFFHNAMGWYRQARGKERELVAAISYSGGSTYYADSVKGRFTIARDNAKNTVYLQMNSLKPEDTAVYYCNRYGNSYYFPPGPLYNYWGQGTQVTVSS
high polyreactivity

---

Experiment: yeast display, Sf9 membrane polyspecificity reagent, FACS + sequencing; frameworks hold sequencing errors
Measured metric: polyreactivity (PSR sort gate)

[
  {
    "Primary sequence": "QVQLVESGGGLVQAGGSLRLSCADSGITFAPYAMGWSRQAPGKERELVATITWSGGSTYYADSVKGRFTISRDNAKNTVYLQMNSLKPEDTAVYYCAAYNDTVPSAAHIYESWGQGTQVTVSS",
    "polyreactivity (PSR sort gate)": "low polyreactivity"
  },
  {
    "Primary sequence": "QVQLVESGGGLVQAGGSLRLSCAASGSIFQYYLIGWYRKAPGKERELVAAIRRSGTTYYADSVKGRFTISRDNAKNTVYLQMNSLKPEDTAVYYCNKVRGQEQSNYDYWGQGTQVTVSS",
    "polyreactivity (PSR sort gate)": "low polyreactivity"
  },
  {
    "Primary sequence": "QVQLVESGGGLVQAGGSLRLSCAASGSTFRYYTMGWYRQAAGQERELVAAITSGGGSTYYADSVKGRFTISRDNAKNTVYLQMNSLKPEDTAVYYCAARTRGTADNYWGQGTQGTVSS",
    "polyreactivity (PSR sort gate)": "high polyreactivity"
  },
  {
    "Primary sequence": "QVQRVESGGGLVQAGGSLRLRCAASGRIFQGNAMGWYRQAPGKERELVAAITWRGGTTYYADSVKGRFTISRDNAKNTVYLQMNSLKPEDTAVYYCNADWWRTLESDYWGQGTQVTVSS",
    "polyreactivity (PSR sort gate)": "low polyreactivity"
  },
  {
    "Primary sequence": "QVQLVESGGGLVQAGGSLSLSCAASGRIFRRYAMGWYRQAPWKERELVAAITWSGGSTYADSVKGRFTISRDNAKNTVYLQMNSLKPEDTAVYYCAARYVTTKGSFVVGYGYWGQGTQVTVSS",
    "polyreactivity (PSR sort gate)": "high polyreactivity"
  }
]

For QVQLVESGGGLVQAGGSLRISCAASGNSFVSNVMGWYREAPGKERELVAAISSGGRTYYADSVKGRFTISRDNAKNTVYLQMNSLKPEDTAVYYCAASYKSKYLGGGEYWGQGTQVTLSS , write its polyreactivity (PSR sort gate).
high polyreactivity

Report polyreactivity (PSR sort gate), nothing else, for this sequence: QVQLVESGGDLVQAGGSLRLSCAASGFTLTNYAMGWYRQATGKARELVAAITSSGGSTYYADSVKGRFTISRDNAKNTVYFQMNSLKPEDTAVYYCAAQGSRHFRWRYDYWGQGTQVTVSS
high polyreactivity
